// data source = ChEMBL document CHEMBL1201862

Tested on: SF-539
run-description: NCI tumour cell line growth inhibition, 48 h
The source made the active and inactive calls. Rule as the data show it: active = GI50 up to about 1.1 µM and inactive = higher.
Returns: one label drawn from 1.0 for active, 0.0 for inactive

Each molecule tested received a call. Report the one for "O=C1OC(c2ccccc2)=N/C1=C\c1cccnc1" .
0.0

Each molecule tested received a call. Report the one for "Cc1ccc(/C=c2\c(=O)[nH]c3nc4ccccc4c(=O)n23)cc1" .
0.0

Each molecule tested received a call. Report the one for "COc1cccc(NC(=O)CC(=O)Nc2cccc(OC)c2)c1" .
0.0

Each molecule tested received a call. Report the one for "CCCC(=O)c1ccc2c(ccc(=O)n2C)c1" .
0.0

Each molecule tested received a call. Report the one for CC1=COC2=C(C)C(=O)C(=O)c3c(C)ccc1c32 [MANSONONE F] .
0.0

Each molecule tested received a call. Report the one for CCc1cccc(C(C)CC)c1NC(=O)CC1C(=O)Nc2ccccc2S1(=O)=O (stereo unspecified) .
0.0

Each molecule tested received a call. Report the one for CCOP(=O)(C/C(O)=C1\C(=O)C(CCCCNC(=O)OC(C)(C)C)N(Cc2ccccc2)C1=O)OCC (stereo unspecified) .
0.0

Each molecule tested received a call. Report the one for CC1(c2cccs2)CC(c2cccs2)=C(C#N)C(=C(C#N)C#N)N1 (stereo unspecified) .
0.0

Each molecule tested received a call. Report the one for O=C(CC1C(=O)Nc2ccccc2[S+]1[O-])Nc1cc(Cl)ccc1Cl (stereo unspecified) .
0.0

Each molecule tested received a call. Report the one for "COc1cc2c(cc1C)NC(=O)/C2=C/c1c(Cl)n(C)c2ccccc12" .
0.0

Each molecule tested received a call. Report the one for CN1CCOC(C(NC(=O)c2ccccc2)c2ccccc2)C1=O (stereo unspecified) .
0.0

Each molecule tested received a call. Report the one for "COc1cc2c(cc1O)[C@]1(Cc3ccc4c(c3C1=O)OCO4)N(C)CC2" .
0.0

Each molecule tested received a call. Report the one for "COc1cc(S(=O)(=O)Nc2ccc(-c3csc(/N=C\c4ccccc4O)n3)cc2)ccc1Cl" .
0.0

Each molecule tested received a call. Report the one for "COC(=O)Nc1nc2cc(NC(=O)c3cccs3)ccc2[nH]1" .
0.0

Each molecule tested received a call. Report the one for "C/C=C1\C=C(OC)CN(CCc2c[nH]c3ccccc23)C1" .
0.0

Each molecule tested received a call. Report the one for "CCOC(=O)c1cc2c(nc1N)-c1ncccc1CC2" .
0.0

Each molecule tested received a call. Report the one for NC1CC(=O)c2sc(I)cc21 (stereo unspecified) .
0.0

Each molecule tested received a call. Report the one for COc1ccc(C2C(=O)C(Cl)N2Nc2nc(C)cc(O)n2)cc1OC (stereo unspecified) .
0.0

Each molecule tested received a call. Report the one for "Cc1cc2c(=O)n(-c3ccc(F)cc3)c(C)nc2c(C(=O)O)c1C" .
0.0

Each molecule tested received a call. Report the one for "NC(=S)SC1=NC(=O)C2(NN1)c1ccccc1-c1ccccc12" .
0.0

Each molecule tested received a call. Report the one for "O=C1C(Cl)=C(Cl)C(=O)N1c1ccccc1Cl" .
0.0

Each molecule tested received a call. Report the one for "CCN(CCCl)CCNc1c2ccccc2nc2ccc(OC)cc12" .
1.0

Each molecule tested received a call. Report the one for "c1csc(-c2nn3c(C45CC6CC(CC(C6)C4)C5)nnc3s2)c1" .
0.0

Each molecule tested received a call. Report the one for COc1cc(C2C3=C(COC3=O)Oc3cc4c(cc32)OCO4)ccc1OC(C)=O (stereo unspecified) .
1.0

Each molecule tested received a call. Report the one for "Brc1ccc2[nH]cc(-c3nc(-c4c[nH]c5ccccc45)cs3)c2c1" .
0.0

Each molecule tested received a call. Report the one for "Cc1ccc(S(=O)(=O)NC(=O)Nc2ccc(C(=O)O)c(O)c2)cc1" .
0.0

Each molecule tested received a call. Report the one for "CN1CCCNCCN(CCc2ccccn2)CCCN(C)CC1" .
0.0

Each molecule tested received a call. Report the one for "N#CC(CC(=O)O)=C(c1ccccc1)c1ccccc1" .
0.0

Each molecule tested received a call. Report the one for "Nn1c(-c2ccccc2)nn(C(=O)c2ccccc2)c1=O" .
0.0

Each molecule tested received a call. Report the one for "O=c1c2cc(-c3ccccc3)cnc2sn1-c1ccc(Oc2ccccc2)cc1" .
0.0

Each molecule tested received a call. Report the one for "O=[N+]([O-])c1cc(/C=N\NS(=O)(=O)c2ccc(Cl)cc2)c(O)c([N+](=O)[O-])c1" .
0.0

Each molecule tested received a call. Report the one for O=C(Nc1ccc([N+](=O)[O-])cc1)C1C(=O)C(=O)N(c2ccc([N+](=O)[O-])cc2)C1=O (stereo unspecified) .
0.0

Each molecule tested received a call. Report the one for "CCCCN(CCCC)C(=C(C(Cl)=C(Cl)Cl)[N+](=O)[O-])N(CCCC)CCCC" .
0.0

Each molecule tested received a call. Report the one for "COc1cc(/C=C(\OC(C)=O)c2ccc3c(c2)OCO3)cc(OC)c1OC" .
0.0

Each molecule tested received a call. Report the one for "NC(=O)N/N=C(\Cc1nc2ccc(C(=O)c3ccccc3)cc2nc1O)C(=O)Nc1ccc(Br)cc1" .
0.0

Each molecule tested received a call. Report the one for "CCN1C(=O)/C(=C\Nc2ccccc2)S/C1=N/Nc1ncc(CC(=O)Nc2ccccc2C)s1" .
0.0

Each molecule tested received a call. Report the one for "CCCCOCCOCCOC1=C(Cl)C(=O)c2c(O)ccc(O)c2C1=O" .
0.0

Each molecule tested received a call. Report the one for CCOC(=O)C(NC(=O)c1cccc(Cl)c1)(Nc1cccc(C)c1)C(F)(F)F (stereo unspecified) .
0.0

Each molecule tested received a call. Report the one for CC1OC(OC2C(O)COC(OC3C(C)OC(OC4C(OC(=O)[C@]56CCC(C)(C)C[C@@H]5C5=CCC7[C@@]8(C)C[C@H](O)[C@H](OC9OC(CO)C(O)C(O)C9O)[C@@](C)(CO)[C@@H]8CC[C@@]7(C)[C@]5(C)CC6)OCC(O)C4O)C(O)C3OC3OCC(O)(CO)C3O)C2O)C(O)C(O)C1O (stereo partly specified) .
0.0

Each molecule tested received a call. Report the one for "N#Cc1c(N)nc2c(/N=N\c3ccccc3)c(N)nn2c1Nc1ccccc1" .
0.0

Each molecule tested received a call. Report the one for "c1ccc(-c2cc(-c3cc(-c4ccccc4)no3)on2)cc1" .
0.0
